# Test system: NCI-H146
# methodNotes: SCLC cell viability assay (CellTiter-Glo), NCI-H146
# Format: cell-based
# experimentalConditions: Homo sapiens, 72 h; NCI-H146, 3 days; read-out: IC50, 50% cell growth inhibition
pIC50: −log10 of the molar value.
recordedMetric: pIC50

molecule: CC[C@@]1(O)C(=O)OCc2c1cc1n(c2=O)Cc2c-1nc1cc3c(cc1c2C12CC(N)(C1)C2)OCO3 [Example 1G]
target: NCI-H146
recordedMetric: pIC50
measuredResult: 7.67

----------
# Tested on: COR-L95
# methodNotes: SCLC cell viability assay (CellTiter-Glo), COR-L95
# Format: cell-based
# experimentalConditions: 72 h; COR-L95, 3 days; read-out: IC50, 50% cell growth inhibition
recordedMetric: IC50 (nM)

smilesRepr: CC[C@@]1(O)C(=O)OCc2c1cc1n(c2=O)Cc2c-1nc1cc3c(cc1c2C12CC(N)(C1)C2)OCO3
recordedMetric: IC50
measuredResult: 5.71
